target-of-assay: monoclonal antibody MV-003
assay-name: ELISA, peptide-BSA coated, MV-003
Kindly state Binding Capacity (code (weak binding, OD halfmax 1:<16000)) for each of the entries shown.
Answers are plain numbers.

Known Binding Capacity (code (weak binding, OD halfmax 1:<16000)) results, listed for orientation:
input: Report Binding Capacity (code (weak binding, OD halfmax 1:<16000)) for IRYDAPLC [p4397]
output: 1

input: Report Binding Capacity (code (weak binding, OD halfmax 1:<16000)) for IRWDGC [p4792]
output: 1

input: Report Binding Capacity (code (weak binding, OD halfmax 1:<16000)) for IRYDMAGC [p4399]
output: 1

More entries:
input: Report Binding Capacity (code (weak binding, OD halfmax 1:<16000)) for VRWDVYPC [p4396]
output: 1
